Target: human APJ receptor (Homo sapiens (Human))
Sequence (P35414 whole entry): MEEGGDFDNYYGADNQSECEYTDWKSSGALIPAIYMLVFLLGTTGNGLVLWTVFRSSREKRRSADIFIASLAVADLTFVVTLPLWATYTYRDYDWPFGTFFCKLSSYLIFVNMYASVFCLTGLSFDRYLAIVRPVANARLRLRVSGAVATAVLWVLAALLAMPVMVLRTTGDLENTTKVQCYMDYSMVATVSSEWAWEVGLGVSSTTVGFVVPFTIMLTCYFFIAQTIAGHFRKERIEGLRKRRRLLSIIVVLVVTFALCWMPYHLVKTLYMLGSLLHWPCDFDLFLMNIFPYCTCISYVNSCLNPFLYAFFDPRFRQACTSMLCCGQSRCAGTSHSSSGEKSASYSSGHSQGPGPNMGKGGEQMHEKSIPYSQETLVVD
Experiment: biochemical
Details: read-out: Activity hAPJ SPA EC50 IP

- compound: "COc1cccc(-c2nnc(NS(=O)(=O)[C@@H](C)[C@H](O)c3cnc(C)cn3)n2-c2c(OC)cccc2OC)n1 (single isomer, unassigned) [Example 578.0]"
  EC50 / nM: 2.7
- compound: "COc1cccc(OC)c1-n1c(NS(=O)(=O)[C@@H](C)[C@H](C)c2ncc(F)cn2)nnc1-c1cccc(=O)[nH]1"
  EC50 / nM: 110
- compound: "COc1cccc(-c2nnc(NS(=O)(=O)[C@@H](C)[C@H](OC)c3ncc(C)cn3)n2-c2ccccc2F)n1 (atropisomer, axis not shown; (P))"
  EC50 / nM: 3
- compound: "CCO[C@@H](c1ncc(Cl)cn1)[C@H](C)S(=O)(=O)Nc1nnc(-c2cncc(C)c2)n1-c1c(OC)cccc1OC (single isomer, unassigned) [Example 609.0]"
  EC50 / nM: 9.4
- compound: "COc1cccc(-c2nnc(NS(=O)(=O)CCc3ncc(F)cn3)n2-c2c(OC)cccc2OC)n1 [Example 676.0, 2,2,2-trifluoroacetate]"
  EC50 / nM: 6
- compound: "COc1cccc(-c2nnc(NS(=O)(=O)[C@@H](C)[C@H](O)c3ccc(F)cc3)n2-c2c(OC)cccc2OC)n1 (single isomer, unassigned) [Example 285.0]"
  EC50 / nM: 0.57
- compound: "CCS(=O)(=O)Nc1nnc(-c2cccc(OC)n2)n1-c1c(OC)cccc1OC"
  EC50 / nM: 150
- compound: "COc1cnc([C@@H](O)[C@H](C)S(=O)(=O)Nc2nnc(-c3cncc(C)c3)n2-c2c(OC)cccc2OC)cn1 (single isomer, unassigned) [Example 308.0]"
  EC50 / nM: 76
- compound: "COc1cccc(-c2nnc(NS(=O)(=O)[C@@H](C)[C@H](O)C(C)(C)C)n2-c2c(OC)cccc2OC)n1 (single isomer, unassigned) [Example 434.0]"
  EC50 / nM: 120
- compound: "COc1cccc(OC)c1-n1c(NS(=O)(=O)[C@H](C)[C@@H](C)c2ncc(C)cn2)nnc1-c1cccnc1"
  EC50 / nM: 25
- compound: "COc1cccc(OC)c1-n1c(NS(=O)(=O)[C@@H](C)[C@H](C)c2ncc(F)cn2)nnc1-c1cccnc1 (mixture of isomers)"
  EC50 / nM: 1.1
- compound: "COc1cccc(OC)c1-n1c(NS(=O)(=O)[C@H](C)[C@@H](OC[C@H](C)O)c2ncc(C)cn2)nnc1-c1cncc(C)c1 (single isomer, unassigned) [Example 403.0]"
  EC50 / nM: 0.21

###

Below, each entry is listed with its recorded EC50.
Target: human APJ receptor (Homo sapiens (Human))
Assay: biochemical
Settings: read-out: Activity hAPJ SPA EC50 IP
Protocol: The human APJ receptor was cloned by polymerase chain reaction and the gene encoding the receptor was subcloned in pFLAG-CMV™-3 expression vector (Sigma, Saint Louis, Mo. USA) in-house at Amgen. A GTPγS binding assay was performed on membranes prepared from CHO cells stably expressing human APJ receptor. The optimum experimental conditions for the concentrations of GDP, MgCl2, and NaCl in the assay buffer were initially determined. […]

- molecule: "COc1cccc(-c2nnc(NS(=O)(=O)[C@H](C)C(=O)N3CCCC3)n2-c2c(OC)cccc2OC)n1 (mixture of isomers)"
  EC50 (nM): 48
- molecule: "COc1cccc(-c2nnc(NS(=O)(=O)[C@@H](C)[C@@H](O)C3CC(F)(F)C3)n2-c2c(OC)cccc2OC)n1 (single isomer, unassigned) [Example 720.0]"
  EC50 (nM): 35
- molecule: "COc1cccc(OC)c1-n1c(NS(=O)(=O)[C@@H](C)[C@H](OC)c2ccc(F)cn2)nnc1-c1cncc(C)c1 (single isomer, unassigned) [Example 351.0]"
  EC50 (nM): 0.87

###

Molecular target: human APJ receptor (Homo sapiens (Human))
Assay: biochemical
Conditions: read-out: Activity hAPJ SPA EC50 IP
pEC50: −log10 of the molar value.
Assign class by pEC50: not lower than 9 means 1 (yes); lower than 9 means 0 (no).

- compound: "COc1cccc(OC)c1-n1c(NS(=O)(=O)[C@@H](C)[C@@H](C)n2cc(C)cn2)nnc1-c1cncc(C)c1 (single isomer, unassigned) [Example 651.0]"
  group-label: "0 (no)"
- compound: "COc1cccc(-c2nnc(NS(=O)(=O)[C@@H](C)[C@H](OC)c3ncc(C)cn3)n2-c2c(OC)ccnc2OC)n1 (atropisomer, axis not shown) [Example 636.0]"
  group-label: "1 (yes)"
- compound: "COc1cccc(OC)c1-n1c(NS(=O)(=O)C[C@H](O)c2ccc(C#N)cc2S(C)(=O)=O)nnc1-c1cncc(C)c1 (single isomer, unassigned) [Example 491.0]"
  group-label: "1 (yes)"
- compound: "COc1cccc(-c2nnc(NS(=O)(=O)[C@@H](C)[C@H](OC)c3ncc(C)cn3)n2-c2cc(Cl)cc(Cl)c2)n1 [Example 68.0]"
  group-label: "0 (no)"
- compound: "COc1cccc(-c2nnc(NS(=O)(=O)[C@H](C)[C@@H](OCCO)c3ncc(C)cn3)n2-c2c(OC)cccc2OC)n1 (single isomer, unassigned) [Example 416.0]"
  group-label: "1 (yes)"
- compound: "COc1cccc(OC)c1-n1c(NS(=O)(=O)[C@@H](C)[C@@H](C)n2cc(C)cn2)nnc1-c1cncc(C)c1 (single isomer, unassigned) [Example 650.0]"
  group-label: "0 (no)"
- compound: "COc1cc(-c2nnc(NS(=O)(=O)[C@@H](C)[C@H](OC)c3ncc(C)cn3)n2-c2c(OC)cccc2OC)ccn1 [Example 101.0]"
  group-label: "0 (no)"
- compound: "COc1cccc(OC)c1-n1c(NS(=O)(=O)[C@H](C)[C@@H](OC)c2ccc(C#N)cn2)nnc1-c1cncc(C)c1 (single isomer, unassigned) [Example 553.0]"
  group-label: "0 (no)"
- compound: "COc1cccc(OC)c1-n1c(NS(=O)(=O)[C@@H](C)[C@H](C)c2ncc(C)cn2)nnc1-c1cccnc1 [Example 586.0]"
  group-label: "1 (yes)"
- compound: "COc1ncnc(OC)c1-n1c(NS(=O)(=O)[C@@H]2C[C@@H](OC)CN(c3ncc(F)cn3)C2)nnc1-c1cccnc1 (stereo in doubt) [Example 815.0]"
  group-label: "0 (no)"
- compound: "COc1cnc([C@@H](C)[C@H](C)S(=O)(=O)Nc2nnc(-c3cncc(C)c3)n2-c2c(OC)cccc2OC)nc1 [Example 682.0, 2,2,2-trifluoroacetate]"
  group-label: "1 (yes)"
- compound: "COc1cccc(OC)c1-n1c(NS(=O)(=O)[C@H](C)[C@@H](O)c2cnc(C)cn2)nnc1-c1cncc(C)c1 (single isomer, unassigned) [Example 569.0]"
  group-label: "1 (yes)"
- compound: "COc1cccc(-c2nnc(NS(=O)(=O)[C@H](C)[C@@H](OCCO)c3ncc(C)cn3)n2-c2c(OC)cccc2OC)n1 (single isomer, unassigned) [Example 415.0]"
  group-label: "0 (no)"
- compound: "COc1cccc(-c2nnc(NS(=O)(=O)[C@@H](C)[C@H](O)C(C)(C)C)n2-c2c(OC)cccc2OC)n1 (single isomer, unassigned) [Example 437.0]"
  group-label: "0 (no)"
- compound: "COc1cccc(OC)c1-n1c(NS(=O)(=O)N[C@@H](C)c2ncc(F)cn2)nnc1-c1cncc(C)c1 [Example 392.0]"
  group-label: "0 (no)"
- compound: "COc1cccc(-c2nnc(NS(=O)(=O)[C@@H](C)[C@H](OC)c3ncc(C)cn3)n2-c2cccc(C)c2)n1 [Example 62.0]"
  group-label: "0 (no)"
- compound: "COc1cccc(-c2nnc(NS(=O)(=O)[C@@H](C)[C@H](O)c3ccc(F)cc3F)n2-c2c(OC)cccc2OC)n1 (single isomer, unassigned) [Example 281.0]"
  group-label: "0 (no)"
- compound: "COc1cccc(-c2nnc(NS(=O)(=O)[C@@H](C)[C@H](OC)c3ncc(C)cn3)n2-c2ccccc2)n1 [Example 34.0]"
  group-label: "0 (no)"

###

Biological target: human APJ receptor (Homo sapiens (Human))
Test: biochemical
Settings: read-out: Activity hAPJ SPA EC50 IP
assay-endpoint: EC50 (nM)

- molecule: "COc1cccc(-c2nnc(NS(=O)(=O)[C@@H](C)[C@H](OC)c3ccc(C#N)cc3C#N)n2-c2c(OC)cccc2OC)n1 (single isomer, unassigned)"
  target-or-test-system: "human APJ receptor (Homo sapiens (Human))"
  uom: "nM"
  reading: 0.35
- molecule: "COc1cccc(-c2nnc(NS(=O)(=O)[C@@H](C)[C@H](OC)c3ncc(C)cn3)n2-c2c(OC)ncnc2OC)n1"
  target-or-test-system: "human APJ receptor (Homo sapiens (Human))"
  uom: "nM"
  reading: 0.54
- molecule: "COc1cccc(OC)c1-n1c(NS(=O)(=O)[C@@H](C)[C@H](C)c2ncc(F)cn2)nnc1-c1cncc(C)c1 (single isomer, unassigned) [Example 237.0]"
  target-or-test-system: "human APJ receptor (Homo sapiens (Human))"
  uom: "nM"
  reading: 14
- molecule: "COc1cccc(OC)c1-n1c(NS(=O)(=O)[C@@H](C)[C@@H](O)c2ccc(C#N)cc2F)nnc1-c1cncc(C)c1 (single isomer, unassigned) [Example 344.0]"
  target-or-test-system: "human APJ receptor (Homo sapiens (Human))"
  uom: "nM"
  reading: 0.6
- molecule: "COc1ncnc(OC)c1-n1c(NS(=O)(=O)[C@@H](C)[C@H](C)c2cnc(C)cn2)nnc1-c1ccccn1"
  target-or-test-system: "human APJ receptor (Homo sapiens (Human))"
  uom: "nM"
  reading: 14
- molecule: "COc1cccc(OC(F)F)c1-n1c(NS(=O)(=O)[C@@H](C)[C@H](OC)c2ncc(C)cn2)nnc1-c1cccnc1"
  target-or-test-system: "human APJ receptor (Homo sapiens (Human))"
  uom: "nM"
  reading: 2.6
- molecule: "COc1cncc(-c2nnc(NS(=O)(=O)[C@@H](C)[C@H](C)c3ncc(C)cn3)n2-c2c(OC)cccc2OC)c1"
  target-or-test-system: "human APJ receptor (Homo sapiens (Human))"
  uom: "nM"
  reading: 1.3
- molecule: "COc1ncnc(OC)c1-n1c(NS(=O)(=O)[C@@H](C)[C@H](OC)c2cnc(C)cn2)nnc1-c1ccccn1"
  target-or-test-system: "human APJ receptor (Homo sapiens (Human))"
  uom: "nM"
  reading: 17
- molecule: "CO[C@H](c1ncc(C)cn1)[C@H](C)S(=O)(=O)Nc1nnc(-c2cncc(C)c2)n1-c1c(F)cccc1F [Example 677.0, 2,2,2-trifluoroacetate]"
  target-or-test-system: "human APJ receptor (Homo sapiens (Human))"
  uom: "nM"
  reading: 7.2
- molecule: "COc1cccc(OC)c1-n1c(NS(=O)(=O)[C@@H](C)[C@H](OC)C2CC(C)(C)C2)nnc1-c1cncc(C)c1 (single isomer, unassigned) [Example 725.0]"
  target-or-test-system: "human APJ receptor (Homo sapiens (Human))"
  uom: "nM"
  reading: 36
- molecule: "COc1cccc(OC)c1-n1c(NS(=O)(=O)[C@H](C)[C@H](OC(C)C)c2cn3ccccc3n2)nnc1-c1cccnc1 (stereo in doubt) [Example 827.0]"
  target-or-test-system: "human APJ receptor (Homo sapiens (Human))"
  uom: "nM"
  reading: 10
- molecule: "COc1cccc(OC)c1-n1c(NS(=O)(=O)[C@@H](C)[C@@](C)(F)c2ncc(C#N)cn2)nnc1-c1cncc(C)c1 (single isomer, unassigned) [Example 537.0]"
  target-or-test-system: "human APJ receptor (Homo sapiens (Human))"
  uom: "nM"
  reading: 57
